Assay: Cleavage assay in whole defibrinated rabbit blood
Type: in vitro ADME
Settings: Rabbit blood pH 7.3 (37° C.) Run 1
Experimental: Cleavage Assays for Pro-Drugs of 18,21-dihydromacbecin Assays to determine the rate of cleavage of the pro-drugs into their parent compounds were performed as described herein. These were carried out in plasma, blood or buffer. […] If using whole blood such as defibrinated whole rabbit blood the following protocol was used: The blood was thawed at 37° C. in a water bath. Blood was dispensed into individual 20 mL tubes for each test compound allowing 0.5 mL for each time point to be analysed. […]
quantityKind: t1/2 (h)
Numbers only, in h.

What t1/2 value was documented for this compound, CNCCNC(=O)Oc1cc2c(O)c(c1)C(OC)C(C)CC(OC)C(OC)C(C)C=C(C)C(OC(N)=O)C(C)C=CC=C(C)C(=O)N2.Cl (stereo not shown) ?
2.55

###

assay: Cleavage assay in phosphate buffer; type: physicochemical; conditions: Phosphate Buffer pH 7.4 (37° C.); cleavage to 18,21-dihydromacbecin
quantityKind: t1/2 (h)
Answers are plain numbers, in h.

# get_value(readout='t1/2', item= CNCCNC(=O)Oc1cc2c(O)c(c1)C(OC)C(C)CC(OC)C(OC)C(C)C=C(C)C(OC(N)=O)C(C)C=CC=C(C)C(=O)N2.Cl (stereo not shown) )
2.12
